# Assay name: recombinant UMI read abundance after kanamycin selection (control-corrected) (log10(CPM+1)); higher = more efficient recombination; extreme values may be limits of the assay; sequences stand for … in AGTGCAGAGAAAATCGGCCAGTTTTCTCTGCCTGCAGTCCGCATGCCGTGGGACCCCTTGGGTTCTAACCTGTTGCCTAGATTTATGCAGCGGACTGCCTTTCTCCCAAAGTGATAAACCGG…AGGTTGGTTTCACT; site = the 11-nt donor
Measurement type: recombinant UMI read abundance (log10)
# print the numeric value only

Examples with their reported recombinant UMI read abundance (log10) follow.
| Sequence input | recombinant UMI read abundance (log10) |
| --- | --- |
| ACACGTACATGGACCGGTTTTCCCGGTAATCCGTATTTGTC (site ACACGTACTGA) | 1.49 |
| CGATAGACATGGACCGGTTTTCCCGGTAATCCGTATTTGTT (site CGATTGACTAA) | 0.00602 |

Lab book: recombinant UMI read abundance (log10) of GTGGGGGCATGGACCGGTTTTCCCGGTAATCCGTATTTGTG (site GTGGTGGCTCA) noted as 0.0315

Sure, the documented recombinant UMI read abundance (log10) for CCGGAACCATGGACCGGTTTTCCCGGTAATCCGTATTTGAT (site CTGGAACCTAT) is 0.00208

// recombinant UMI read abundance (log10) value for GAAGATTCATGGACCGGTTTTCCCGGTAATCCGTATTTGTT (site GTAGATTCTAA) : 0.39

---

# Assay name: recombinant UMI read abundance after kanamycin selection (control-corrected) (log10(CPM+1)); higher = more efficient recombination; extreme values may be limits of the assay; sequences stand for … in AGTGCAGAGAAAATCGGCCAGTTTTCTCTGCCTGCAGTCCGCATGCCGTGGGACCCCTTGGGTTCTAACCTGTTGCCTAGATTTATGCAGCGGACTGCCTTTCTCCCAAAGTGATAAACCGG…AGGTTGGTTTCACT; site = the 11-nt donor
# recombinant UMI read abundance (log10) values compiled below
// no unit string in output, number only

For record CTACTAACATGGACCGGTTTTCCCGGTAATCCGTATTTGAA (site CTACTAACTTT) the listed recombinant UMI read abundance (log10) is 2.27

# recombinant UMI read abundance (log10) of GACACGCCATGGACCGGTTTTCCCGGTAATCCGTATTTGTA (site GGCACGCCTTA) = 0.00761

TTTCTCTCATGGACCGGTTTTCCCGGTAATCCGTATTTGTA (site TTTCTCTCTTA) yielded recombinant UMI read abundance (log10) of 0.571

Notebook: CTCCCTACATGGACCGGTTTTCCCGGTAATCCGTATTTGAT (site CTCCCTACTAT) , recombinant UMI read abundance (log10) read as 1.01

Field recombinant UMI read abundance (log10) (entry TTAGTATCATGGACCGGTTTTCCCGGTAATCCGTATTTGAC (site GTAGTATCTGT) ) reads 0.348

get_value(item= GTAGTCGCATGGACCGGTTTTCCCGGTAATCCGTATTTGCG (site GTAGTAGCTCG) , readout=recombinant UMI read abundance (log10)) returns 0.489

# recombinant UMI read abundance (log10) of ATCCATACATGGACCGGTTTTCCCGGTAATCCGTATTTGAC (site ATCGATACTGT) = 0

Record GCGATGCCATGGACCGGTTTTCCCGGTAATCCGTATTTGGG (site GCGACGCCTCC) . Reported recombinant UMI read abundance (log10): 0.0196

Recorded result, CAGACATCATGGACCGGTTTTCCCGGTAATCCGTATTTGCT (site CGGACATCTAG) , recombinant UMI read abundance (log10): 1.16

Value of measured recombinant UMI read abundance (log10) for the entry CGCCGTACATGGACCGGTTTTCCCGGTAATCCGTATTTGGT (site CGCCGTACTAC) : 0.57

Recorded result, TCCACAGCATGGACCGGTTTTCCCGGTAATCCGTATTTGCG (site TCCACAGCTCG) , recombinant UMI read abundance (log10): 0

---

Entries and their measured recombinant UMI read abundance (log10) follow.
# Assay name: recombinant UMI read abundance after kanamycin selection (control-corrected) (log10(CPM+1)); higher = more efficient recombination; extreme values may be limits of the assay; sequences stand for … in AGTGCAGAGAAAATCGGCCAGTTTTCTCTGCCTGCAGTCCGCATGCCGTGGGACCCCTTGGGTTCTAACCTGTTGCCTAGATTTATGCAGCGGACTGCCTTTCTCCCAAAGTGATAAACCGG…AGGTTGGTTTCACT; site = the 11-nt donor
Response field accepts a number only; no unit should be typed.

Guide cases for recombinant UMI read abundance (log10), answers given:
| Sequence input | recombinant UMI read abundance (log10) |
| --- | --- |
| CGATCCTCATGGACCGGTTTTCCCGGTAATCCGTATTTGGT (site CGATCATCTAG) | 0 |
| CCCTAGTCATGGACCGGTTTTCCCGGTAATCCGTATTTGCC (site CCCTAGACTGG) | 0.402 |
| AATTTATCATGGACCGGTTTTCCCGGTAATCCGTATTTGTT (site AATTTATCTAA) | 0.558 |
| TATTTGCCATGGACCGGTTTTCCCGGTAATCCGTATTTGTG (site TATTTGGCTCA) | 0.00691 |
| GTTAGTACATGGACCGGTTTTCCCGGTAATCCGTATTTGGC (site GTTAGGACTGC) | 0 |

# recombinant UMI read abundance (log10) (sequence: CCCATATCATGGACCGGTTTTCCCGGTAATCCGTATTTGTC (site CCCGTATCTGA) ) is 0

GAATTCCCATGGACCGGTTTTCCCGGTAATCCGTATTTGCT (site GAATTCCCTAG) has a reported recombinant UMI read abundance (log10) of 0.671

The sequence CCAATCGCATGGACCGGTTTTCCCGGTAATCCGTATTTGCA (site CCAATCGCTTG) showed recombinant UMI read abundance (log10) equal to 0

The sequence listed as TCAGTATCATGGACCGGTTTTCCCGGTAATCCGTATTTGCG (site ACAGTATCTTG) shows recombinant UMI read abundance (log10) equal to 0

---

# Assay name: recombinant barcode read abundance after kanamycin selection (control-corrected) (log10(CPM+1)); higher = more efficient recombination; sequences stand for … in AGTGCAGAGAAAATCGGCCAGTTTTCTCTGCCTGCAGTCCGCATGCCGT…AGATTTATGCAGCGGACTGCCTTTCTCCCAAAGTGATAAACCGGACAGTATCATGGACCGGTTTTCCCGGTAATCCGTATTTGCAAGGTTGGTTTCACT; site = the 11-nt target
Collected recombinant barcode read abundance (log10) values appear next to each entry.
Number, no unit, nothing else.

Example cases with answers are listed next.
| Sequence input | Endpoint result |
| --- | --- |
| CATCCGGCTTGGGTTCTAACCTGTTGCCT (site CATCCGGCTAG) | 0.434 |
| ACCTGGGCTTGGGTTCTAACCTGTTGCCT (site AACTGGGCTAG) | 0.0365 |

For this sequence ( TAGCATGCTTGGGTTCTAACCTGTTGCAG (site TAGCATGCTGT) ), measured recombinant barcode read abundance (log10) is 0.0603

The sequence ACCCAGCCTTGGGTTCTAACCTGTTGCGT (site ACCCAGCCTAT) showed recombinant barcode read abundance (log10) equal to 2.22

---

Listing of entries alongside the reported recombinant UMI read abundance (log10).
# Assay name: recombinant UMI read abundance after kanamycin selection (control-corrected) (log10(CPM+1)); higher = more efficient recombination; extreme values may be limits of the assay; sequences stand for … in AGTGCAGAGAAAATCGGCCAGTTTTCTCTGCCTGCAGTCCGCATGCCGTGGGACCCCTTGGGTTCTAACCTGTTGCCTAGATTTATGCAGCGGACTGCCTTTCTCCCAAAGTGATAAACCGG…AGGTTGGTTTCACT; site = the 11-nt donor
Form: value (number only, do not type unit).

| Sequence input | recombinant UMI read abundance (log10) |
| --- | --- |
| GAATGCCCATGGACCGGTTTTCCCGGTAATCCGTATTTGCA (site GAATGACCTTG) | 0 |

Measured recombinant UMI read abundance (log10) of TGATTCCCATGGACCGGTTTTCCCGGTAATCCGTATTTGAC (site TGATTCCCTGT) : 0.794

Per the record, GCCACACCATGGACCGGTTTTCCCGGTAATCCGTATTTGTA (site GCCACTCCTTA) has recombinant UMI read abundance (log10) of 0.0198

// field: recombinant UMI read abundance (log10); key: CTGGTATCATGGACCGGTTTTCCCGGTAATCCGTATTTGAC (site CTTGTATCTGT) ; value = 0.816

Entry ACAGTTTCATGGACCGGTTTTCCCGGTAATCCGTATTTGCG (site ACAGTTTCTCG) , recombinant UMI read abundance (log10) reported as 2.64

Reported recombinant UMI read abundance (log10) of GGGGAATCATGGACCGGTTTTCCCGGTAATCCGTATTTGGG (site GGGGAATCTCC) : 0.39

Entry TTGGTCCCATGGACCGGTTTTCCCGGTAATCCGTATTTGAA (site TTGGTCCCTTT) ; recombinant UMI read abundance (log10) = 0.00683
